System: Escherichia coli
Assay: Antimicrobial activity against Escherichia coli MTCC 723 at 500 ug/ml after 24 hrs by cup plate method
Format: functional
Conditions: MTCC 723, 24 h, read-out: IZ
Assign zone of inhibition at 500 µg/mL to each entry below.
One number for each entry, in mm.

compound	tgt	result
Cc1ccc2[nH]c(-c3ccccc3)c(C3C=C(c4ccc(Cl)cc4)Oc4[nH]c(=O)nc(N)c43)c2c1 (centres undefined)	Escherichia coli	10
Cc1ccc(C2=CC(c3c(-c4ccccc4)[nH]c4ccccc34)c3c(N)n[nH]c3O2)cc1 (centres undefined)	Escherichia coli	8
CN[C@@H]1[C@H](O[C@H]2[C@H](O[C@H]3[C@H](O)[C@@H](O)[C@H](N=C(N)N)[C@@H](O)[C@@H]3N=C(N)N)O[C@@H](C)[C@]2(O)C=O)O[C@@H](CO)[C@H](O)[C@H]1O	Escherichia coli	14

Record request: zone of inhibition at 500 µg/mL value, item N#CC1=C(N)OC(c2ccccc2)=CC1c1c(-c2ccccc2)[nH]c2ccc(Cl)cc12 (centres undefined)
10

###

Tested on: Aspergillus oryzae
Assay: Antimicrobial activity against Aspergillus oryzae MTCC 3567 at 1000 ug/ml after 72 hrs by cup plate method
Format: functional
Details: MTCC 3567, 72 h, read-out: IZ
Assign rule met to entries whose zone of inhibition at 1000 µg/mL meets or exceeds 10 mm; assign rule not met to the rest.

Observe how each entry below is paired with its result.
compound	tgt	classification
N#CC1=C(N)OC(c2ccc(Cl)cc2)=CC1c1c(-c2ccccc2)[nH]c2ccccc12 (stereo not drawn)	Aspergillus oryzae	rule not met
N#Cc1c(N)c2c(N)c3c(nc2oc1=O)OC(c1ccccc1)=CC3c1c(-c2ccccc2)[nH]c2ccc(Cl)cc12 (stereo not drawn)	Aspergillus oryzae	rule met
Cc1ccc(C2=CC(c3c(-c4ccccc4)[nH]c4ccccc34)c3c(nc[nH]c3=O)O2)cc1 (stereo not drawn)	Aspergillus oryzae	rule not met
Cc1ccc2[nH]c(-c3ccccc3)c(C3C=C(c4ccccc4)Oc4nc[nH]c(=O)c43)c2c1 (stereo not drawn)	Aspergillus oryzae	rule not met

Is reported zone of inhibition at 1000 µg/mL greater than or equal to 10 mm here: N#Cc1c(N)c2c(N)c3c(nc2oc1=O)OC(c1ccccc1)=CC3c1c(-c2ccccc2)[nH]c2ccccc12 (stereo not drawn)
rule met

Is reported zone of inhibition at 1000 µg/mL greater than or equal to 10 mm here: O=c1[nH]cnc2c1C(c1c(-c3ccccc3)[nH]c3ccc(Cl)cc13)C=C(c1ccccc1)O2 (stereo not drawn)
rule met

Is reported zone of inhibition at 1000 µg/mL greater than or equal to 10 mm here: Cc1ccc(C2=CC(c3c(-c4ccccc4)[nH]c4ccc(C)cc34)c3c(N)nc(=O)[nH]c3O2)cc1 (stereo not drawn)
rule not met

Is reported zone of inhibition at 1000 µg/mL greater than or equal to 10 mm here: Cc1ccc(C2=CC(c3c(-c4ccccc4)[nH]c4ccc(C)cc34)C(C#N)=C(N)O2)cc1 (stereo not drawn)
rule met

###

System: Escherichia coli
Experiment: Antimicrobial activity against Escherichia coli MTCC 723 at 500 ug/ml after 24 hrs by cup plate method
Assay type: functional
Conditions: MTCC 723, 24 h, read-out: IZ
Assign zone of inhibition at 500 µg/mL to each entry below.
One number for each entry, in mm.

compound	result
O=c1[nH]cnc2c1C(c1c(-c3ccccc3)[nH]c3ccccc13)C=C(c1ccc(Cl)cc1)O2 (stereo not drawn)	9
Nc1nc(=O)[nH]c2c1C(c1c(-c3ccccc3)[nH]c3ccc(Cl)cc13)C=C(c1ccc(Cl)cc1)O2 (stereo not drawn)	9

Please turn your attention to the following entry.
Form field - read-out: zone of inhibition at 500 µg/mL; system: Escherichia coli; submitted item: Cc1ccc(C2=CC(c3c(-c4ccccc4)[nH]c4ccccc34)c3c(N)nc(=S)[nH]c3O2)cc1 (stereo not drawn)
9
